Tested on: Escherichia coli TOP10;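 further: peptides expressed intracellularly from a pBAD plasmid library in pooled LB shake-flask culture, induced with 0.3% L-arabinose, DNA abundance read by NGS, three biological replicates, DESeq2 with apeglm shrinkage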
ASSAY OVERVIEW: shrunken log2 fold change of peptide-encoding DNA abundance (4.5 h post-induction vs induction); higher = less antimicrobial activity (less host growth inhibition)
EXPERIMENTAL SETUP: time post-induction: 4.5 h; library: site-saturation at positions 5, 18, 19, 20
Quick reference for shrunken log2 fold change among some sequences
// return just the number, without any unit appended

RRIRVRPPRLPRPRPRPNFMPRP: 0.0796
RRIRMRPPRLPRPRPRPYGNPRP: 0.081
RRIRKRPPRLPRPRPRPYNPPRP: -1.13
RRIRWRPPRLPRPRPRPGVNPRP: 0.0981
RRIRFRPPRLPRPRPRPIPDPRP: -0.215

What value of measured shrunken log2 fold change is listed for RRIRWRPPRLPRPRPRPGDAPRP ?
0.418

Try this sequence too: RRIRVRPPRLPRPRPRPFFTPRP
0.00087

Try this sequence too: RRIRLRPPRLPRPRPRPWWPPRP
0.0144

Try this sequence too: RRIRGRPPRLPRPRPRPIHSPRP
-0.441

Try this sequence too: RRIRLRPPRLPRPRPRPVICPRP
-0.16

Try this sequence too: RRIRMRPPRLPRPRPRPTMQPRP
0.566

Try this sequence too: RRIRFRPPRLPRPRPRPHGVPRP
-0.0563

Try this sequence too: RRIRARPPRLPRPRPRPVWSPRP
0.197

Try this sequence too: RRIRVRPPRLPRPRPRPELMPRP
-0.0669

Try this sequence too: RRIRVRPPRLPRPRPRPGSQPRP
-0.11

Try this sequence too: RRIRDRPPRLPRPRPRPAAYPRP
0.174

Try this sequence too: RRIRNRPPRLPRPRPRPDGGPRP
-0.323
